Molecular target: T1, SCRIB-3/4 (MBP fusion of the third of the four PDZ domains of SCRIB) (human, UniProt Q14160-1 997-1093)
T1 construct: also called MBP-PDZ analyte SCRIB-3/4; source: E. coli BL21 DE3, purified (amylose column, Superdex 75 gel filtration)
T1 sequence (looked up): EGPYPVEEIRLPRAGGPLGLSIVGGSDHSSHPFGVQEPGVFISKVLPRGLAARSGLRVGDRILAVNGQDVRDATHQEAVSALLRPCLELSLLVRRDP
Test: SPR
Conditions: both partners purified
Ends that are not written are not given here. * marks the point of attachment. Biotin = O=C1N[C@H]2[C@H](CS[C@H]2CCCCC(=O)*)N1
attribute_measured: pKd
// field semantics: pKd = negative decimal log of concentration (mol/L)

These recorded examples may help you get a feel for the data.
For the binder Biotin-GSGAGPETLV (also called ARHGAP6 short; source: synthetic peptide (JPT Peptide Technologies)) [ARHGAP6_05 (short peptide of Rho GTPase-activating protein 6: GSGAG and the last five residues)] , what pKd is on record?
3.67

For the binder Biotin-SGGKRKETLV (also called NET1 long; source: synthetic peptide (JPT Peptide Technologies)) [NET1_10 (long peptide of Neuroepithelial cell-transforming gene 1 protein: the last ten residues)] , what pKd is on record?
3.66

State the recorded pKd for this entry: Biotin-NPDALPETLV (also called ARHGAP6 long; source: synthetic peptide (JPT Peptide Technologies)) [ARHGAP6_10 (long peptide of Rho GTPase-activating protein 6: the last ten residues)]
3.27

Moving on to another binder below.
Fill blank: measured pKd of the binder Biotin-QDEKVKESYV (also called ABC1 long; source: synthetic peptide (JPT Peptide Technologies)) [ABC1_10 (long peptide of ATP-binding cassette sub-family A member 1: the last ten residues)] is ____.
3.97
